- system.under.test: T1, human IL-12 (human, UniProt P29460 23-328; P29459 23-219)
- T1 construct: Recombinant (Peprotech); FLAG-tagged IL-12 in the flow cytometry assays, biotinylated in the IL-12Rβ2 assay; also called hIL-12
- T1 sequence 1: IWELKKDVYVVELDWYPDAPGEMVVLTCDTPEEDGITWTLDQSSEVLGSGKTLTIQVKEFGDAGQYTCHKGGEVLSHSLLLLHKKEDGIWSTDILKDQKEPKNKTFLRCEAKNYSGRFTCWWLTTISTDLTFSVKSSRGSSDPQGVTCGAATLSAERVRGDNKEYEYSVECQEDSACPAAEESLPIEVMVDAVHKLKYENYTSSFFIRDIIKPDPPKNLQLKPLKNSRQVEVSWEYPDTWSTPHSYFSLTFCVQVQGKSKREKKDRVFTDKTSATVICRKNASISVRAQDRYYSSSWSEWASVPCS
- T1 sequence 2: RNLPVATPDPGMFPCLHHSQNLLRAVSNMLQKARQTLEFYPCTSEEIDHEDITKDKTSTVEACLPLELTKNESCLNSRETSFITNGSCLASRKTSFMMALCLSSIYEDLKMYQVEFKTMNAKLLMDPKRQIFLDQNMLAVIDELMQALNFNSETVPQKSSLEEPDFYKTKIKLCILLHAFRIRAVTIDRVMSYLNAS
- measurement.description: ELISA, coated IL-12
property.name: binding result

* Antibody 52 (antibody, human IgG1, kappa, V domains shown) VH: EVQLVQSGAEVKKPGATVKISCKASGYTFSDYYLHWVRQRPGKGLEWMGWIDPENGDTEYAPKFQGRVTITADTSTDTGYLELSSLRSEDTAVYYCAANKELRYFDVWGQGTLVTVSS VL: DIQMTQSPSSVSASVGDRVTITCRASQSISINLHWYQQKPGKAPKLLIYFASQSISGVPSRFSGSGSGTDFSLTINSLQPEDFATYYCQQSNSFPLTFGGGTKVEIKR | binds
* Antibody 51 (antibody, human IgG1, kappa, V domains shown) VH: EVQLVQSGAEVKKPGATVKISCKASGYTFSDYYLHWVRQAPGKGLEWMGWIDPENGDTEYAPKFQGRVTITADTSTDTGYLELSSLRSEDTAVYYCAANKELRYFDVWGQGTLVTVSS VL: DIQMTQSPSSVSASVGDRVTITCRASQSISINLHWYQQKPGKAPKLLIYFASQSISGVPSRFSGSGSGTDFSLTINSLQPEDFATYYCQQSNSFPLTFGGGTKVEIKR | binds
* Antibody 58 (antibody, human IgG1, kappa, V domains shown) VH: EVQLVQSGAEVKKPGATVKISCKASGYTFSDYYLHWVRQAPEKGLEWMGWIDPENGDTEYAPKFQGRVTITADTSTDTGYLELSSLRSEDTAVYYCAANKELRYFDVWGQGTLVTVSS VL: DIQMTQSPSSVSASVGDRVTITCRASQSISINLHWYQQKPGKAPKLLIKFASQSISGVPSRFSGSGSGTDFSLTINSLQPEDFATYYCQQSNSFPLTFGGGTKVEIKR | binds
